Test system: Androgen receptor (Mus musculus) (UniProt P19091)
Sequence (P19091 whole entry): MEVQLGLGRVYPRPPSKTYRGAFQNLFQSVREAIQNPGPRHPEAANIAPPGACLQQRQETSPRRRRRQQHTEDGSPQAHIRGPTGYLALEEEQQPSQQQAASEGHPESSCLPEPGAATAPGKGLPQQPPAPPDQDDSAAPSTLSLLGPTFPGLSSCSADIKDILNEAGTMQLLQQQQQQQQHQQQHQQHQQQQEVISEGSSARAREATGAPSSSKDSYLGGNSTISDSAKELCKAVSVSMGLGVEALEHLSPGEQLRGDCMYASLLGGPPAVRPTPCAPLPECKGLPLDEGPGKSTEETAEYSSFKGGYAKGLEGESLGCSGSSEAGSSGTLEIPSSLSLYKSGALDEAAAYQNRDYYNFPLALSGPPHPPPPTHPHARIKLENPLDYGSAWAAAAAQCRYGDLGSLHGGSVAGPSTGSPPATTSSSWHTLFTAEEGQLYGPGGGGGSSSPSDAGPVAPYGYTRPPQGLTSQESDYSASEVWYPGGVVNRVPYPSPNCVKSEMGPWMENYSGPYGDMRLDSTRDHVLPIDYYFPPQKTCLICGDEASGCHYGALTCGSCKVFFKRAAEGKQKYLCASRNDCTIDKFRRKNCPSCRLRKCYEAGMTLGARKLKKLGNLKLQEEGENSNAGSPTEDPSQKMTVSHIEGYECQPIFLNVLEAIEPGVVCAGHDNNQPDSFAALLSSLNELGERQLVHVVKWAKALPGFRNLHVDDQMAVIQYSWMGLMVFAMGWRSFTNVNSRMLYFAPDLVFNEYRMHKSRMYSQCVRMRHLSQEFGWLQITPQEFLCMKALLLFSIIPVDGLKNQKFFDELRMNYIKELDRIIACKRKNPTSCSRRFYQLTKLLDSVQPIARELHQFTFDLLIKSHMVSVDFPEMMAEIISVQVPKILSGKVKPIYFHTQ
Test name: Activation of androgen receptor in androgen-sensitive (AR+) mouse Shionogi cells assessed as stimulation of cell proliferation after 10 days at 1 uM relative to control
The source made the active and inactive calls. No cut-off for these calls is given here.
Property name: Activity

>>> observed_value("CCN(Cc1ccccc1)C[C@@]1(O)CC[C@@]2(C)[C@@H](CC[C@@H]3[C@@H]2CC[C@]2(C)C(=O)CC[C@@H]32)C1")
"314%"
>>> observed_value("C[C@]12CC[C@](O)(Cc3ccccc3)C[C@@H]1CC[C@@H]1[C@@H]2CC[C@]2(C)C(=O)CC[C@@H]12")
"396%"
>>> observed_value("C[C@]12CC[C@@]3(C[C@@H]1CC[C@@H]1[C@@H]2CC[C@]2(C)C(=O)CC[C@@H]12)CN(Cc1ccccc1)C(=O)O3")
"inactive"
>>> observed_value("C[C@@H]1CN(S(=O)(=O)c2ccccc2C(F)(F)F)[C@@H](C)CN1C[C@@]1(O)CC[C@@]2(C)[C@@H](CC[C@@H]3[C@@H]2CC[C@]2(C)C(=O)CC[C@@H]32)C1")
"inactive"
